test: small-molecule binders of probe aNOTCH3, primary screen, biochemical, small-molecule microarray, 635/667 nm fluorescence (AID 1120); settings: higher = more signal;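 note: probe is a biotin-tagged antibody raised against NOTCH3 rather than NOTCH3 protein; score merges spot fluorescence near 667 nm with spot signal to noise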

Compound	composite z-score
COC(=O)[C@@H]1CC[C@H](C)[C@@H](c2ccc(C)cc2)N1C(=O)c1ccc(C=NO[C@@H](C)c2cn([C@H](CO)Cc3ccccc3)nn2)cc1	0.217
CCOC(=O)[C@H](Cc1ccccc1)NC(=O)CCC1CC(OC(=O)NCc2cccc3ccccc23)CC2(CCCC(COC(=O)NCCC(C)C)O2)O1 (some centres undefined)	-0.0956
COc1ccc(COC(=O)NN=C2C[C@@H](O)[C@@H](O)[C@@H]3[C@@H]4C(=O)N(c5cccc(Oc6ccccc6)c5)C(=O)[C@@H]4CC[C@@H]23)cc1	0.123
O=C1C=C[C@@H](O)[C@@H]2[C@@H]3C(=O)N(C[C@@H]4CCCO4)C(=O)[C@@H]3CC[C@@H]12	-0.125

Cited source: PubChem BioAssay
